Data origin, for the record: ChEMBL document CHEMBL1926565

- MEASURED ON: Telomerase reverse transcriptase (Homo sapiens)
- TEST DESCRIPTION: Residual activity of human TERT in H1299 cells at 1 uM after 24 hrs by SEAP reporter gene assay
EXPERIMENTAL READOUT: residual activity (%)

>  <SMI>
O=C(CCl)Nc1ccc2c(c1NC(=O)c1cccc(Cl)c1)C(=O)c1ccccc1C2=O

>  <TEST VALUE>
80

$$$$
>  <SMI>
O=C(CCl)Nc1ccc2c(c1NC(=O)c1ccccc1Cl)C(=O)c1ccccc1C2=O

>  <TEST VALUE>
81

$$$$
>  <SMI>
Cc1ccc(C(=O)Nc2c(NC(=O)CN3CCCC3)ccc3c2C(=O)c2ccccc2C3=O)cc1

>  <TEST VALUE>
81

$$$$
